System: Leishmania donovani promastigotes
Assay remarks: Antileishmanial activity against promastigotes (MTT assay)
Type: cell-based
Run conditions: TC50 RAW / IC50 promastigote
Listed next: entries and their corresponding Therapeutic Index (TC50/IC50) promastigotes.
Metric name: Therapeutic Index (TC50/IC50) promastigotes

1) O=C(Nc1ccccc1-c1nc2c(C(=O)O)cccc2o1)c1ccccc1 [Compound C06D]; 0.06
2) N=C(N)c1ccc(-c2cc(-c3ccccc3)on2)cc1 [Compound E02A]; 344.83
3) CC1COC(Cn2cncn2)(c2ccc(Oc3ccc(Cl)cc3)cc2Cl)O1 (centres unmarked) [Compound C06A, Difenoconazole, reference compound]; 476.19
4) CS(=O)(=O)c1ccccc1C(=O)N(Cc1ccccc1)c1ccccc1 [Compound H05A]; 0.19
5) CO[C@@H](C(=O)N1Cc2[nH]nc(NC(=O)c3ccc(N4CCN(C)CC4)cc3)c2C1)c1ccccc1 [Compound C03B]; 0.34
6) Clc1cccc(CO[C@H]2CCc3ccccc3[C@@H]2n2ccnn2)c1 [Compound A07E]; 0.07
7) Cc1ncc(-c2ccnc(Nc3ccc(S(C)(=O)=O)cc3)n2)n1C(C)C [Compound B03B]; 1.25
8) CC1CCCCN1C(=O)NCCc1coc(-c2ccc(F)cc2)n1 (centres unmarked) [Compound E05A]; 256.41
9) COc1ccc(C2=NN(C3CCCCCC3)C(=O)[C@@H]3CC=CC[C@H]23)cc1OCCCCOc1ccc(-c2nn[nH]n2)cc1 [Compound C02B]; 2.53
10) CNC(=O)c1nn(C)c2c1C(C)(C)Cc1cnc(Nc3ccc(N4CCN(C)CC4)cc3)nc1-2 [Compound H02B]; 0.92
11) Cc1noc(C)c1COc1cccc(C(=O)N=c2[nH]cccc2C)c1 [Compound D05A]; 500
12) O=C(Nc1ccc2c(c1)B(O)OC2)c1ccccc1C(F)(F)F [Compound A03B]; 0.41
13) c1ccc(Oc2ccc(-c3cc(C4CCOCC4)n[nH]3)cc2)cc1 [Compound D02A]; 476.19
14) O=C(NCc1nnc2n1CCCCC2)c1ccc(-c2ccc(F)cc2)o1 [Compound A06A]; 2.05

====

Test system: RAW 264.7 murine macrophage cell line
Assay remarks: Cytotoxicity against mammalian RAW macrophage cell line (MTT assay)
Run conditions: 48 hrs, 50% cytotoxic concentration
Listed next: entries and their corresponding TC50 (μg/ml) ±SD RAW.
Metric name: TC50 (μg/ml) ±SD RAW (µg/mL)

1. Cc1ncc(-c2ccnc(Nc3ccc(S(C)(=O)=O)cc3)n2)n1C(C)C [Compound B03B]; 0.25
2. O=C(Nc1ccc2c(c1)B(O)OC2)c1ccccc1C(F)(F)F [Compound A03B]; 0.18
3. O=C(Nc1ccccc1-c1nc2c(C(=O)O)cccc2o1)c1ccccc1 [Compound C06D]; 0.39
4. CNC(=O)c1nn(C)c2c1C(C)(C)Cc1cnc(Nc3ccc(N4CCN(C)CC4)cc3)nc1-2 [Compound H02B]; 0.11

====

Test system: Leishmania donovani amastigotes in RAW macrophage cells
Assay remarks: Antileishmanial activity against macrophage-amastigotes (MTT assay)
Format: cell-based
Run conditions: TC50 RAW / IC50 amastigote
Listed next: entries and their corresponding Therapeutic Index (TC50/IC50) amastigotes.
Metric name: Therapeutic Index (TC50/IC50) amastigotes

1. COc1ccc(C2=NN(C3CCCCCC3)C(=O)[C@@H]3CC=CC[C@H]23)cc1OCCCCOc1ccc(-c2nn[nH]n2)cc1 [Compound C02B]; 2.92
2. c1ccc(Oc2ccc(-c3cc(C4CCOCC4)n[nH]3)cc2)cc1 [Compound D02A]; 454.55
3. N=C(N)c1ccc(-c2cc(-c3ccccc3)on2)cc1 [Compound E02A]; 18.73
4. O=C(Nc1ccccc1-c1nc2c(C(=O)O)cccc2o1)c1ccccc1 [Compound C06D]; 0.13
5. CC1CCCCN1C(=O)NCCc1coc(-c2ccc(F)cc2)n1 (centres unmarked) [Compound E05A]; 36.50

====

Test system: RAW 264.7 murine macrophage cell line
Assay remarks: Cytotoxicity against mammalian RAW macrophage cell line (MTT assay)
Run conditions: 48 hrs, 50% cytotoxic concentration
Listed next: entries and their corresponding TC50 (μg/ml) ±SD RAW.
Metric name: TC50 (μg/ml) ±SD RAW (µg/mL)

1. COc1ccc(C2=NN(C3CCCCCC3)C(=O)[C@@H]3CC=CC[C@H]23)cc1OCCCCOc1ccc(-c2nn[nH]n2)cc1 [Compound C02B]; 0.38
2. Clc1cccc(CO[C@H]2CCc3ccccc3[C@@H]2n2ccnn2)c1 [Compound A07E]; 0.41
3. CS(=O)(=O)c1ccccc1C(=O)N(Cc1ccccc1)c1ccccc1 [Compound H05A]; 0.15
4. O=C(NCc1nnc2n1CCCCC2)c1ccc(-c2ccc(F)cc2)o1 [Compound A06A]; 0.39
5. CO[C@@H](C(=O)N1Cc2[nH]nc(NC(=O)c3ccc(N4CCN(C)CC4)cc3)c2C1)c1ccccc1 [Compound C03B]; 0.21

====

Tested on: Leishmania donovani promastigotes
Assay remarks: ROS generation in treated promastigotes (H2DCFDA)
Format: cell-based
Run conditions: 100, 50 or 25 μM, 72 hrs
Metric name: ROS generation effect in promastigotes

1) O=C(Nc1ccccc1-c1nc2c(C(=O)O)cccc2o1)c1ccccc1 [Compound C06D]; anti-oxidative effect
2) CC(C)(C)OC(=O)N1CCN(c2cc(-c3ccc(Oc4ccccc4)cc3)n[nH]2)CC1; anti-oxidative effect
3) CO[C@@H](C(=O)N1Cc2[nH]nc(NC(=O)c3ccc(N4CCN(C)CC4)cc3)c2C1)c1ccccc1 [Compound C03B]; pro-oxidative action
4) CC1(C)S[C@@H]2[C@H](NC(=O)[C@H](N)c3ccc(O)cc3)C(=O)N2[C@H]1C(=O)O [Amoxicillin, reference compound]; pro-oxidative action
5) CC1CCCCN1C(=O)NCCc1coc(-c2ccc(F)cc2)n1 (stereo not shown) [Compound E05A]; anti-oxidative effect
6) CCc1nn(C)c(C(=O)NCc2ccc(Oc3ccc(C)cc3)cc2)c1Cl; anti-oxidative effect
7) O=C1O[C@H]([C@@H](O)CO)C(O)=C1O [Vitamin C, reference compound]; anti-oxidative effect
8) CNC(=O)c1nn(C)c2c1C(C)(C)Cc1cnc(Nc3ccc(N4CCN(C)CC4)cc3)nc1-2 [Compound H02B]; anti-oxidative effect
9) O=C(Nc1ccc2c(c1)B(O)OC2)c1ccccc1C(F)(F)F [Compound A03B]; anti-oxidative effect
10) Cc1noc(C)c1COc1cccc(C(=O)N=c2[nH]cccc2C)c1 [Compound D05A]; anti-oxidative effect

====

System: Leishmania donovani promastigotes
Assay remarks: Antileishmanial activity against promastigotes (MTT assay)
Type: cell-based
Run conditions: Leishmania donovani; 96 hrs at 25° C, MTT, mean of three experiments; read-out: IC50 (μg/ml) ±SD promastigote
Metric name: IC50 (µg/mL)

1) N=C(N)c1ccc(-c2cc(-c3ccccc3)on2)cc1 [Compound E02A]; 0.29
2) Cc1noc(C)c1COc1cccc(C(=O)N=c2[nH]cccc2C)c1 [Compound D05A]; 0.2
3) CC1COC(Cn2cncn2)(c2ccc(Oc3ccc(Cl)cc3)cc2Cl)O1 (centres unmarked) [Compound C06A, Difenoconazole, reference compound]; 0.21
4) O=C(NCc1nnc2n1CCCCC2)c1ccc(-c2ccc(F)cc2)o1 [Compound A06A]; 0.19
5) c1ccc(Oc2ccc(-c3cc(C4CCOCC4)n[nH]3)cc2)cc1 [Compound D02A]; 0.21

====

Tested on: Leishmania donovani amastigotes in RAW macrophage cells
Assay remarks: Antileishmanial activity against macrophage-amastigotes (MTT assay)
Type: cell-based
Run conditions: TC50 RAW / IC50 amastigote
Listed next: entries and their corresponding Therapeutic Index (TC50/IC50) amastigotes.
Metric name: Therapeutic Index (TC50/IC50) amastigotes

1. Cc1noc(C)c1COc1cccc(C(=O)N=c2[nH]cccc2C)c1 [Compound D05A]; 26.32
2. O=C(Nc1ccc2c(c1)B(O)OC2)c1ccccc1C(F)(F)F [Compound A03B]; 0.90
3. Cc1ncc(-c2ccnc(Nc3ccc(S(C)(=O)=O)cc3)n2)n1C(C)C [Compound B03B]; 0.63
4. CS(=O)(=O)c1ccccc1C(=O)N(Cc1ccccc1)c1ccccc1 [Compound H05A]; 0.60
5. Clc1cccc(CO[C@H]2CCc3ccccc3[C@@H]2n2ccnn2)c1 [Compound A07E]; 0.07
6. O=C(NCc1nnc2n1CCCCC2)c1ccc(-c2ccc(F)cc2)o1 [Compound A06A]; 1.03
7. CC1COC(Cn2cncn2)(c2ccc(Oc3ccc(Cl)cc3)cc2Cl)O1 (centres unmarked) [Compound C06A, Difenoconazole, reference compound]; 21.74
8. CNC(=O)c1nn(C)c2c1C(C)(C)Cc1cnc(Nc3ccc(N4CCN(C)CC4)cc3)nc1-2 [Compound H02B]; 0.02

====

System: RAW 264.7 murine macrophage cell line
Assay remarks: Cytotoxicity against mammalian RAW macrophage cell line (MTT assay)
Run conditions: 48 hrs, 50% cytotoxic concentration
Metric name: TC50 (μg/ml) ±SD RAW

1. CC1CCCCN1C(=O)NCCc1coc(-c2ccc(F)cc2)n1 (stereo not drawn) [Compound E05A]; >100 µg/mL
2. c1ccc(Oc2ccc(-c3cc(C4CCOCC4)n[nH]3)cc2)cc1 [Compound D02A]; >100 µg/mL
3. CC1COC(Cn2cncn2)(c2ccc(Oc3ccc(Cl)cc3)cc2Cl)O1 (stereo not drawn) [Compound C06A, Difenoconazole, reference compound]; >100 µg/mL

Origin of values: paper PMC8608343
